# measured.target: mouse TLR7 (Mus musculus, UniProt P58681)
# Construct: expressed in transfected cells; host or cells: Ba/F3 cells (provided by Prof. Kensuke Miyake, University of Tokyo)
# protocol: Inhibition of TLR7 activation in mouse TLR7-expressing NF-κB-GFP reporter Ba/F3 cells
# Type: cell-based
# test.conditions: Example 5, Table 5; method of Example 2; read-out: IC50
# Description: Mouse TLR7-expressing reporter cells (Ba/F3 cells) were used to evaluate inhibition of TLR7 activation in each derivative and CB-7. These cells were provided by Professor Kensuke Miyake (Department of Infection Genetics, Institute of Medical Science, University of Tokyo). […] The fluorescence intensity of GFP was attenuated by the addition of each derivative, and the inhibition of TLR7 activation by each derivative was evaluated as an indicator. […]
Counter-ions that a name gives are not always drawn.
So I've got a bunch of compounds here, and I need their pIC50 values.
One number for each entry, as −log10 of the molar value.

> print(dat)
                                   compound  observed.property  result.value
1  C=C(C)[C@@H]1CC[C@]2(COC(=O)C2)C[C@H]1c1ccc(CN2CCNCC2)cc1 [B2-24-4-5A·HCOOH]              pIC50          6.78
2  C=C[C@]1(CO)CC[C@@H](C(=C)C)[C@H](c2ccc(OC)cc2)C1 [CB-7, reference compound]              pIC50          5.12

As a next step, examine the compound that follows.
Complete the entry with pIC50 for C=C[C@]1(CO)CC[C@@H](C(=C)C)[C@H](c2ccc(CN3CCNCC3)cc2)C1 [B2-24-4•HCl]
6.78

###

# measured.target: mouse TLR7 (Mus musculus)
# Construct: expressed in transfected cells; host or cells: Ba/F3 cells (provided by Prof. Kensuke Miyake, University of Tokyo)
# Sequence (P58681 27-1050): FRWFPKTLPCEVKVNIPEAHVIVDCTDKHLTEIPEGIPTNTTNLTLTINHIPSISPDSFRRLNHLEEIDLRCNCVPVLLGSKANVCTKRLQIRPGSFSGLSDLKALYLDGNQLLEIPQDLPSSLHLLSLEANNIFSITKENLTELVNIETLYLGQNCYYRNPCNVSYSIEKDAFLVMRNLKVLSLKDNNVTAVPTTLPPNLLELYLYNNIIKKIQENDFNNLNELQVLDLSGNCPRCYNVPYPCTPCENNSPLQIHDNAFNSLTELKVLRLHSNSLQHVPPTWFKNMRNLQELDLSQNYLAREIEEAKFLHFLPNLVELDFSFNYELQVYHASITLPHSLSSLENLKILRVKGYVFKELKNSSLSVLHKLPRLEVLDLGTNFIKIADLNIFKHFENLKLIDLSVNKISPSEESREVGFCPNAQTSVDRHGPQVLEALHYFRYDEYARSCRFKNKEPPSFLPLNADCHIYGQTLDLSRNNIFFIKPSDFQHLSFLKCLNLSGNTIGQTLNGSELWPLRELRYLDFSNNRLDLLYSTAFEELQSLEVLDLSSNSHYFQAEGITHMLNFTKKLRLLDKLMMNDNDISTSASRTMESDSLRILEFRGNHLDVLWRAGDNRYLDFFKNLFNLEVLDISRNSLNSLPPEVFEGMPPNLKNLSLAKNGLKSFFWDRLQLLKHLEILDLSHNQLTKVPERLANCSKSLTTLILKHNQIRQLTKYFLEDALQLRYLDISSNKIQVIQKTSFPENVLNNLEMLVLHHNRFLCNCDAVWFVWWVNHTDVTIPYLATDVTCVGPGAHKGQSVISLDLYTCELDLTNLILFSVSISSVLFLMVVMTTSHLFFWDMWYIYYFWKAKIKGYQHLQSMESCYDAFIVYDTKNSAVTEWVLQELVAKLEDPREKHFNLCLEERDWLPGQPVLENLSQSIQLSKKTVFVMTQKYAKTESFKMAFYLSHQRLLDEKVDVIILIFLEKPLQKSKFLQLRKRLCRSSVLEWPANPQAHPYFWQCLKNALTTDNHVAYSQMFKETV
# protocol: Inhibition of TLR7 activation in mouse TLR7-expressing NF-κB-GFP reporter Ba/F3 cells
# Format: cell-based
# test.conditions: Example 2; Ba/F3 reporter cells, loxoribine stimulation 18 hours, GFP MFI; read-out: IC50 of CB-7 derivatives with modified Areas a and b
Structures can show the parent of a compound that is named as a salt.
So I've got a bunch of molecules here, and I need their pIC50 values.
One number for each entry, as −log10 of the molar value.

> print(dat)
                                   molecule            measured.target  result.value
1  C=C(C)[C@@H]1CC[C@]2(COC(=O)C2)C[C@H]1c1ccc(OC)cc1 [B2-5A]  mouse TLR7 (Mus musculus)          5.61
2  C=CC[C@]1(CO)CC[C@@H](C(=C)C)[C@H](c2ccc(OCCCO)cc2)C1 [B2-28]  mouse TLR7 (Mus musculus)          5.78
3  C=C[C@]1(CO)CC[C@@H](C(=C)C)[C@H](c2ccc(CN3CCCC3)cc2)C1 [B2-24]  mouse TLR7 (Mus musculus)          6.36
4  C=C[C@]1(CO)CC[C@@H](C(=C)C)[C@H](c2ccc(COCCCO)cc2)C1 [B2-26]  mouse TLR7 (Mus musculus)          5.90
5  C=C(C)[C@@H]1CC[C@]2(COC(=O)C2)C[C@H]1c1ccc(CN2CCCC2)cc1 [B2-5A-9]  mouse TLR7 (Mus musculus)          6.52
6  C=C[C@]1(CO)CC[C@@H](C(=C)C)[C@H](c2ccc(COCCOC)cc2)C1 [B2-13]  mouse TLR7 (Mus musculus)          6.04
7  C=C[C@]1(CO)CC[C@@H](C(=C)C)[C@H](c2ccc(CN3CC(F)(F)C3)cc2)C1 [B2-24-3]  mouse TLR7 (Mus musculus)          5.90
8  C=C[C@]1(CO)CC[C@@H](C(=C)C)[C@H](c2ccc(OC)cc2)C1 [CB-7, reference compound]  mouse TLR7 (Mus musculus)          5.51

State recorded pIC50 for all listed molecules.
1. C=C(C)[C@@H]1CC[C@]2(COC(=O)C2)C[C@H]1c1ccc(COCCOC)cc1 [B2-5A-4]
2. C=CC[C@]1(CO)CC[C@@H](C(=C)C)[C@H](c2ccc(OCC(C)CO)cc2)C1 (stereo partly drawn) [B2-29]
3. C=C(C)[C@@H]1CC[C@]2(COC(=O)C2)C[C@H]1c1ccc(CN(CC)CC)cc1 [B2-5A-6]
4. C=C(C)[C@@H]1CC[C@@](CO)(CC(=O)N2CCOCC2)C[C@H]1c1ccc(OC)cc1 [B2-6-7]
5. C=C(C)[C@@H]1CC[C@]2(COC(=O)C2)C[C@H]1c1ccc(OCCCO)cc1 [B2-5A-7]

5.59
5.76
6.68
5.03
5.60

State recorded pIC50 for all listed molecules.
1. C=C[C@]1(CO)CC[C@@H](C(=C)C)[C@H](c2ccc(CN3CCC(F)(F)CC3)cc2)C1 [B2-24-1]
2. C=C[C@]1(CO)CC[C@@H](C(=C)C)[C@H](c2ccc(CN3CCNCC3)cc2)C1 [B2-24-4•HCl]
3. C=C[C@]1(CO)CC[C@@H](C(=C)C)[C@H](c2ccc(CN3CCOCC3)cc2)C1 [B2-24-2]
4. C=C[C@]1(CC)CC[C@@H](C(=C)C)[C@H](c2ccc(CN(CC)CC)cc2)C1 [B2-22]

[5.98, 7.06, 6.15, 6.51]
